system: HSV2; assay: Viral qPCR assay, HSV2 in Vero cells; type: cell-based, Herpes Simplex Virus type 2; conditions: Human alphaherpesvirus 2, Vero, 72 h, read-out: HSV2 VERO Cell (EC50)
property_name: pEC50
Please report pEC50 as the negative decimal logarithm of the molar concentration, giving only the number.

The following compounds have reported results that may help.
// query # pEC50 lookup, item CCC1(Cn2nc(C(=O)NCc3ccc(Cl)cc3)c3c2CN(C[C@H]2CCC(=O)N2)C3)COC1
// result 4.46

// query Item O=C1CC[C@H](CN2Cc3c(C(=O)NCc4ccc(Cl)cc4)nn(CC4CCCO4)c3C2)N1 (stereo partly shown) has what recorded pEC50?
// result 5.05

// query For the compound shown here, O=C1CC[C@H](CN2Cc3c(C(=O)NCc4ccc(Cl)cc4)nn(CC4(CF)COC4)c3C2)N1 , give the reported pEC50.
// result 4.51

// next item, pEC50 requested
// query # pEC50 lookup, item O=C1CC[C@H](CN2Cc3c(C(=O)NCc4ccc(Cl)cc4)nn(CC4CCO4)c3C2)N1 (stereo partly shown)
// result 4.79
